assay: chemical genetic growth profiling, strain panel (AID 1159580);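 note: tested at 20 µM; growth read once vehicle control cultures reached saturation at 30 °C; 1 = growth at the plate median or of vehicle wells; lower values mean less growth of the strain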; conditions: S. cerevisiae deletion strains, growth OD, locus YOR070C, strain gyp1, active compounds read low
The whole screen tested about 5,500 compounds, of which about 2,000 (36%) were called active. Inconclusive results (about 18%) are left out. Some of the results follow.
VALUE_TYPE: normalized growth
Hey, just send me the number, nothing else.

Query: What does the data say about its normalized growth? Entry: CCC[C@@H]1C[C@@H](C(=O)N[C@H]([C@H]2O[C@H](SC)[C@H](O)[C@@H](O)[C@H]2O)[C@H](C)O)N(C)C1
Result: 0.993

Query: How about C=C(C)C1Cc2c(ccc3c(=O)c4c(oc23)COc2cc(OC)c(OC)cc2-4)O1 (stereo not drawn) ?
Result: 0.99

Query: How about O=C(CCc1ccc(O)cc1)c1c(O)cc(O)cc1O ?
Result: 1.02

Query: How about COc1ccc([C@@H](C)C(=O)c2ccc(O)cc2O)cc1 ?
Result: 0.987

Query: How about CC(NC(C)(C)C)C(=O)c1cccc(Cl)c1 (stereo not drawn) ?
Result: 1

Query: How about CNC(=O)N(C)c1nnc(C(C)(C)C)s1 ?
Result: 1

Query: How about CCCCCC/C=C\CCCCCCCc1cccc(O)c1C(=O)O ?
Result: 0.975

Query: How about CC(=O)O[C@@H]1C2CC[C@@H]3C1(C[C@@H](O)[C@@]1(O)[C@@H](C[C@H](O)C1(C)C)[C@]3(C)O)C[C@@]2(C)O (stereo partly drawn) ?
Result: 0.985

Query: How about CC(=O)NS(=O)(=O)c1ccc(N)cc1 ?
Result: 1.02

Query: How about CNC(C)(C)Cc1ccccc1 ?
Result: 1.01

Query: How about CC(=CC1CCC(C)C2C1=C(C)CC2O)C(=O)O (stereo not drawn) ?
Result: 1

Query: How about O=C1c2ccccc2C(=O)c2ccccc21 ?
Result: 0.996

Query: How about O=C(N[C@@H](CO)[C@H](O)c1ccc([N+](=O)[O-])cc1)C(Cl)Cl ?
Result: 1

Query: How about Cn1c(=O)[nH]c2nc[nH]c2c1=O ?
Result: 1

Query: How about Cc1cc2nc3c(=O)[nH]c(=O)nc-3n(CC(O)C(O)C(O)CO)c2cc1C (stereo not drawn) ?
Result: 0.984

Query: How about COc1cc(O)c2c(c1)C(=O)c1cc(C)cc(O)c1C2=O ?
Result: 0.979

Query: How about CNC(C)[C@@H]1CC[C@@H](N)[C@@H](OC2[C@@H](N)C[C@@H](N)[C@H](OC3OC[C@](C)(O)[C@H](NC)[C@H]3O)[C@H]2O)O1 (stereo partly drawn) ?
Result: 0.987

Query: How about CC(=O)NC1C(O)OC(COS(=O)(=O)O)C(OC2OC(C(=O)O)C(OC3OC(CO)C(OC4OC(C(=O)O)C(O)C(O)C4OS(=O)(=O)O)C(OS(=O)(=O)O)C3NS(=O)(=O)O)C(O)C2OS(=O)(=O)O)C1O (stereo not drawn) ?
Result: 0.978

Query: How about Cn1c(=O)c2c(ncn2C)n(C)c1=O ?
Result: 0.993

Query: How about CC(=O)OCC1=C(C(=O)O)N2C(=O)[C@@H](NC(=O)CSc3ccncc3)[C@H]2SC1 ?
Result: 1.01

Query: How about NNCc1ccccc1 ?
Result: 0.989

Query: How about CC(C)[C@@H]1CC[C@@H](C)CC1=O ?
Result: 0.996

Query: How about COc1ccccc1OCC(O)COC(N)=O (stereo not drawn) ?
Result: 0.988
